Could you please report measured upper left quadrant, percent of cells AF647+ / hTcRβ-PerCP- for the items listed next?
Biological target: T1, monkey CD3e (Macaca fascicularis) on PBMC (Macaca fascicularis, UniProt Q95LI5 22-198)
T1 construct: Target on PBMC from Macaca fascicularis; also called mfCD3e; monkey PBMC
T1 sequence (Q95LI5 22-198 limits assumed): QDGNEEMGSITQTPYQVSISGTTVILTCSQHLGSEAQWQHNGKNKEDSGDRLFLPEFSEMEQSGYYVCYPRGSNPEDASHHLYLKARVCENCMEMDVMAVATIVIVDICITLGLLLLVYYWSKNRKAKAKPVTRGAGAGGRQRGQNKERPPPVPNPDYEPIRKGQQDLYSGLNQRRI
Assay: flow cytometry, Macaca fascicularis PBMC, antibody concentration not given, anti-human IgG Fc-Alexa Fluor647 (1:500), anti-hTcRβ-PerCP (1:30)
The figure you give is taken to be in %; do not add the unit.

Challenge: Determine from records and report upper left quadrant, percent of cells AF647+ / hTcRβ-PerCP- for 10A4-H4K1-IgG1-LALA (antibody, V domains shown, Humanized; human IgG1 with LALA mutations; also called H4K1 (humanized 10A4)) VH: QVQLQQSGAEVKKPGASVRISCKASGYTFTSYYIHWVRQRPGQGLEFIGWIYPGNVNAKYNEKFKGRATLTTDKSASTAYMELSSLRSEDTAVYFCAIKGGNYDWGQGTLVTVSS VL: DVVMTQSPLSLPVTLGQPASISCQSSQSLLDSDGKTYLNWLQQRPGQSPRRLIYLVSKLGSGVPDRFSGSGSGTDFTLKISRVEAEDVGVYYCWQGTHFPRTFGGGTKVEIK
Response given: 68.5

Challenge: Determine from records and report upper left quadrant, percent of cells AF647+ / hTcRβ-PerCP- for 1B1-H2K1-IgG1-LALA (antibody, V domains shown, Humanized; human IgG1 with LALA mutations; also called H2K1 (humanized 1B1)) VH: QVQLVQSGAEVKKPGASVKLSCKASGYTFTSYWMHWVRQAPGQGLEWIGNIYPDSGTTNYGEKFKTRVTLTVDTSTSTAYMELSSLRSEDTAVYYCTRDTSGQYYFDYWGQGTLVTVSS VL: DIVMTQSPDSLAVSAGERATMNCKSSQSLLNSRTRKNYLAWYQHKPGQSPKLLIYWASTRESGVPDRFSGSGSGTDFTLTISSLQAEDVAVYYCVQSFSLRAFGGGTKVEIK
Response given: 71
